Sourced from patent US20240366809A1

- Test system: human organs
- ASSAY_COMMENT: Absorbed doses of radiation, estimates for human organs (OLINDA software)
- CONDITION_LABEL: human organ: Adrenals
Listed here are compounds together with their documented radiation dose estimate, Adrenals.
Lab book: enter the figure in mSv/MBq, no units written.

// below: answered compounds
>>> obs_value("O=C([O-])CN1CCN(CC(=O)[O-])CCN(CC(=O)N2CCO[C@]3(CC[C@H](C(=O)N[C@@H](Cc4ccc5ccccc5c4)C(=O)NCCCC[C@H](NC(=O)N[C@@H](CCC(=O)O)C(=O)O)C(=O)O)CC3)C2)CCN(CC(=O)[O-])CC1.[177Lu+3] [^177Lu-v]")
"1.74E−02"
>>> obs_value("O=C([O-])CN1CCN(CC(=O)[O-])CCN(CC(=O)NCC2CCC(C(=O)N[C@@H](Cc3ccc4ccccc4c3)C(=O)NCCCC[C@H](NC(=O)N[C@@H](CCC(=O)O)C(=O)O)C(=O)O)CC2)CCN(CC(=O)[O-])CC1.[177Lu+3] (stereo partly shown) [^177Lu-PSMA-617, reference compound]")
"2.43E−02"
>>> obs_value("O=C([O-])CN1CCN(CC(=O)[O-])CCN(CC(=O)N2CCO[C@]3(CC[C@H](C(=O)N[C@@H](Cc4ccc5ccccc5c4)C(=O)NCCCC[C@H](NC(=O)N[C@@H](CCC(=O)O)C(=O)O)C(=O)O)CC3)C2)CCN(CC(=O)[O-])CC1.[68Ga+3] [^68Ga-v]")
"8.50E−03"

Here is the next item to consider.
Request: Give the measured radiation dose estimate, Adrenals of O=C([O-])CN1CCN(CC(=O)[O-])CCN(CC(=O)NCC2CCC(C(=O)N[C@@H](Cc3ccc4ccccc4c3)C(=O)NCCCC[C@H](NC(=O)N[C@@H](CCC(=O)O)C(=O)O)C(=O)O)CC2)CCN(CC(=O)[O-])CC1.[68Ga+3] (stereo partly shown) [^68Ga-PSMA-617, reference compound] .
Response: 7.49E−02

---

- Tested on: human organs
- ASSAY_COMMENT: Absorbed doses of radiation, estimates for human organs (OLINDA software)
- CONDITION_LABEL: human organ: Right colon
Quick reference: radiation dose estimate, Right colon of the listed items.
Value expressed in mSv/MBq; do not type the unit.

>>> obs_value("O=C([O-])CN1CCN(CC(=O)[O-])CCN(CC(=O)N2CCO[C@]3(CC[C@H](C(=O)N[C@@H](Cc4ccc5ccccc5c4)C(=O)NCCCC[C@H](NC(=O)N[C@@H](CCC(=O)O)C(=O)O)C(=O)O)CC3)C2)CCN(CC(=O)[O-])CC1.[68Ga+3] [^68Ga-v]")
"3.43E−03"
>>> obs_value("O=C([O-])CN1CCN(CC(=O)[O-])CCN(CC(=O)N2CCO[C@]3(CC[C@H](C(=O)N[C@@H](Cc4ccc5ccccc5c4)C(=O)NCCCC[C@H](NC(=O)N[C@@H](CCC(=O)O)C(=O)O)C(=O)O)CC3)C2)CCN(CC(=O)[O-])CC1.[177Lu+3] [^177Lu-v]")
"3.03E−03"
>>> obs_value("O=C([O-])CN1CCN(CC(=O)[O-])CCN(CC(=O)NCC2CCC(C(=O)N[C@@H](Cc3ccc4ccccc4c3)C(=O)NCCCC[C@H](NC(=O)N[C@@H](CCC(=O)O)C(=O)O)C(=O)O)CC2)CCN(CC(=O)[O-])CC1.[68Ga+3] (stereo partly shown) [^68Ga-PSMA-617, reference compound]")
"1.34E−02"

Request: # get_value(readout='radiation dose estimate, Right colon', item= O=C([O-])CN1CCN(CC(=O)[O-])CCN(CC(=O)NCC2CCC(C(=O)N[C@@H](Cc3ccc4ccccc4c3)C(=O)NCCCC[C@H](NC(=O)N[C@@H](CCC(=O)O)C(=O)O)C(=O)O)CC2)CCN(CC(=O)[O-])CC1.[177Lu+3] (stereo partly shown) [^177Lu-PSMA-617, reference compound] )
Response: 2.74E−03

---

Below: a set of entries, each annotated with reported radiation dose estimate, Small Intestine.
- System: human organs
- ASSAY_COMMENT: Absorbed doses of radiation, estimates for human organs (OLINDA software)
- CONDITION_LABEL: human organ: Small Intestine
Kindly provide the numeric value in mSv/MBq only, without the unit symbol.

Guide cases for radiation dose estimate, Small Intestine, answers given:
>>> obs_value("O=C([O-])CN1CCN(CC(=O)[O-])CCN(CC(=O)NCC2CCC(C(=O)N[C@@H](Cc3ccc4ccccc4c3)C(=O)NCCCC[C@H](NC(=O)N[C@@H](CCC(=O)O)C(=O)O)C(=O)O)CC2)CCN(CC(=O)[O-])CC1.[177Lu+3] (stereo partly shown) [^177Lu-PSMA-617, reference compound]")
"4.48E−02"
>>> obs_value("O=C([O-])CN1CCN(CC(=O)[O-])CCN(CC(=O)N2CCO[C@]3(CC[C@H](C(=O)N[C@@H](Cc4ccc5ccccc5c4)C(=O)NCCCC[C@H](NC(=O)N[C@@H](CCC(=O)O)C(=O)O)C(=O)O)CC3)C2)CCN(CC(=O)[O-])CC1.[68Ga+3] [^68Ga-v]")
"1.31E−01"
>>> obs_value("O=C([O-])CN1CCN(CC(=O)[O-])CCN(CC(=O)N2CCO[C@]3(CC[C@H](C(=O)N[C@@H](Cc4ccc5ccccc5c4)C(=O)NCCCC[C@H](NC(=O)N[C@@H](CCC(=O)O)C(=O)O)C(=O)O)CC3)C2)CCN(CC(=O)[O-])CC1.[177Lu+3] [^177Lu-v]")
"1.73E−01"

Let us examine a further case.
Request: Look up radiation dose estimate, Small Intestine for this molecule: O=C([O-])CN1CCN(CC(=O)[O-])CCN(CC(=O)NCC2CCC(C(=O)N[C@@H](Cc3ccc4ccccc4c3)C(=O)NCCCC[C@H](NC(=O)N[C@@H](CCC(=O)O)C(=O)O)C(=O)O)CC2)CCN(CC(=O)[O-])CC1.[68Ga+3] (stereo partly shown) [^68Ga-PSMA-617, reference compound]
Response: 1.00E−01

---

- Test system: human organs
- ASSAY_COMMENT: Absorbed doses of radiation, estimates for human organs (OLINDA software)
- CONDITION_LABEL: human: Effective Dose
Listing: radiation dose estimate, Effective Dose of selected molecules
Give the value, in units of mSv/MBq, as a plain number.

Below, each entry is followed by its recorded radiation dose estimate, Effective Dose result.
>>> obs_value("O=C([O-])CN1CCN(CC(=O)[O-])CCN(CC(=O)N2CCO[C@]3(CC[C@H](C(=O)N[C@@H](Cc4ccc5ccccc5c4)C(=O)NCCCC[C@H](NC(=O)N[C@@H](CCC(=O)O)C(=O)O)C(=O)O)CC3)C2)CCN(CC(=O)[O-])CC1.[177Lu+3] [^177Lu-v]")
"5.46E−02"
>>> obs_value("O=C([O-])CN1CCN(CC(=O)[O-])CCN(CC(=O)NCC2CCC(C(=O)N[C@@H](Cc3ccc4ccccc4c3)C(=O)NCCCC[C@H](NC(=O)N[C@@H](CCC(=O)O)C(=O)O)C(=O)O)CC2)CCN(CC(=O)[O-])CC1.[68Ga+3] (stereo partly shown) [^68Ga-PSMA-617, reference compound]")
"4.68E−02"
>>> obs_value("O=C([O-])CN1CCN(CC(=O)[O-])CCN(CC(=O)N2CCO[C@]3(CC[C@H](C(=O)N[C@@H](Cc4ccc5ccccc5c4)C(=O)NCCCC[C@H](NC(=O)N[C@@H](CCC(=O)O)C(=O)O)C(=O)O)CC3)C2)CCN(CC(=O)[O-])CC1.[68Ga+3] [^68Ga-v]")
"2.10E−02"

Kindly review the next molecule as well.
Request: GET /values?readout=radiation dose estimate, Effective Dose&item= O=C([O-])CN1CCN(CC(=O)[O-])CCN(CC(=O)NCC2CCC(C(=O)N[C@@H](Cc3ccc4ccccc4c3)C(=O)NCCCC[C@H](NC(=O)N[C@@H](CCC(=O)O)C(=O)O)C(=O)O)CC2)CCN(CC(=O)[O-])CC1.[177Lu+3] (stereo partly shown) [^177Lu-PSMA-617, reference compound]
Response: 4.74E−02
